- System: CYP3A4 (Homo sapiens (Human), UniProt P08684)
- Sequence (P08684 whole entry): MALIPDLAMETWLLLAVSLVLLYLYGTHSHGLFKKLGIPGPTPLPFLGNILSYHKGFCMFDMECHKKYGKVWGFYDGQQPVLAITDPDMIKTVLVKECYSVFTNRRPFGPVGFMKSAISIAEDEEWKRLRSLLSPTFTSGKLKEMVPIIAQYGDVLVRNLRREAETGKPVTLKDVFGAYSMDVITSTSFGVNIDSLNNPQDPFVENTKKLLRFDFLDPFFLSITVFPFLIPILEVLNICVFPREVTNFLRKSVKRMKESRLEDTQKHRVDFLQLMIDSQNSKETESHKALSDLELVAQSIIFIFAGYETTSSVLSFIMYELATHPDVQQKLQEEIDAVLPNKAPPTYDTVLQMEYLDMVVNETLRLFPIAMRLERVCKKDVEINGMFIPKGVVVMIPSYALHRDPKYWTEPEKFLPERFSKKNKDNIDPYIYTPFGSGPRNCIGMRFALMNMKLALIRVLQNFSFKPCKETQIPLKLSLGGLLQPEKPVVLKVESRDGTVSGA
- Protocol Text: Mechanism-based inhibition of CYP3A4 assay (MBI 3A4)
- Type: in vitro ADME
- Measurement Parameters: human, human liver microsomes, probe midazolam 15 μM (hydroxy-midazolam formation), midazolam substrate, hydroxy-midazolam formation after 30 min preincubation relative to 0 min, read-out: MBI inhibition % ctrl. [%] with MDZ
Quantity: inhibition at 30 min (%)
Report only the number, with the unit % understood.

Molecule: C[C@@H](NC(=O)c1cc([C@]2(O)CC[C@@H](N3CC[C@H](F)C3)CC2)c2ncnn2c1)c1cccc(C(F)(F)F)c1F
Experimental Value: 94
--
Molecule: C[C@@H]1C[C@@H](O)CN1[C@H]1CC[C@H](c2cc(C(=O)N[C@H](C)c3cccc(C(F)F)c3F)cn3ncnc23)CC1
Experimental Value: 98
--
Molecule: C[C@@H](NC(=O)c1cc(N2CCC(N3CC[C@@H](CO)C3)CC2)c2ncnn2c1)c1cccc(C(C)(F)F)c1F
Experimental Value: 103

Task: Requested field: inhibition at 30 min. Item: "C[C@@H](NC(=O)c1cc(N2CCC3(CCCN3C)CC2)c2ncnn2c1)c1cccc(C(C)(F)F)c1F"
Output: 89

Task: "C[C@@H](NC(=O)c1cc([C@H]2CC[C@H](N3CCC[C@H](O)C3)CC2)c2ncnn2c1)c1cccc(C(F)(F)F)c1F" , same question.
Output: 95

Task: "C[C@@H](O)CNC1CCN(c2cc(C(=O)N[C@H](C)c3cccc(C(F)(F)F)c3F)cn3ncnc23)CC1" , same question.
Output: 75

Task: "C[C@@H](NC(=O)c1cc(N2CCC(N3CCC[C@H](O)C3)CC2)c2ncnn2c1)c1cccc(C(F)(F)F)c1F" , same question.
Output: 95

Task: C[C@@H](NC(=O)c1cc(N2CCC(N3CC4CC4(CO)C3)CC2)c2ncnn2c1)c1cccc(C(F)F)c1F (single isomer, unassigned) [Example cis-E21a] , same question.
Output: 102

Task: "C[C@@H](NC(=O)c1cc([C@H]2CC[C@H](N3CC[C@](C)(O)C3)CC2)c2ncnn2c1)c1cccc(C(F)F)c1F" , same question.
Output: 99

Task: "C[C@@H](NC(=O)c1cc(N2CCC(N3CCC[C@H]3CO)CC2)c2ncnn2c1)c1cccc(C(F)F)c1F" , same question.
Output: 102

Task: "C[C@@H](NC(=O)c1cc(N2CCC(N3CC[C@@H](O)C3)CC2)c2ncnn2c1)c1cccc(C(F)(F)F)c1F" , same question.
Output: 106

Task: "C[C@@H](NC(=O)c1cc(N2CCC(N3CC[C@@H](CO)C3)CC2)c2ncnn2c1)c1cccc(C(F)(F)F)c1F" , same question.
Output: 90
